Biological target: Tyrosine-protein kinase Mer (Homo sapiens) (UniProt Q12866)
Sequence (whole entry): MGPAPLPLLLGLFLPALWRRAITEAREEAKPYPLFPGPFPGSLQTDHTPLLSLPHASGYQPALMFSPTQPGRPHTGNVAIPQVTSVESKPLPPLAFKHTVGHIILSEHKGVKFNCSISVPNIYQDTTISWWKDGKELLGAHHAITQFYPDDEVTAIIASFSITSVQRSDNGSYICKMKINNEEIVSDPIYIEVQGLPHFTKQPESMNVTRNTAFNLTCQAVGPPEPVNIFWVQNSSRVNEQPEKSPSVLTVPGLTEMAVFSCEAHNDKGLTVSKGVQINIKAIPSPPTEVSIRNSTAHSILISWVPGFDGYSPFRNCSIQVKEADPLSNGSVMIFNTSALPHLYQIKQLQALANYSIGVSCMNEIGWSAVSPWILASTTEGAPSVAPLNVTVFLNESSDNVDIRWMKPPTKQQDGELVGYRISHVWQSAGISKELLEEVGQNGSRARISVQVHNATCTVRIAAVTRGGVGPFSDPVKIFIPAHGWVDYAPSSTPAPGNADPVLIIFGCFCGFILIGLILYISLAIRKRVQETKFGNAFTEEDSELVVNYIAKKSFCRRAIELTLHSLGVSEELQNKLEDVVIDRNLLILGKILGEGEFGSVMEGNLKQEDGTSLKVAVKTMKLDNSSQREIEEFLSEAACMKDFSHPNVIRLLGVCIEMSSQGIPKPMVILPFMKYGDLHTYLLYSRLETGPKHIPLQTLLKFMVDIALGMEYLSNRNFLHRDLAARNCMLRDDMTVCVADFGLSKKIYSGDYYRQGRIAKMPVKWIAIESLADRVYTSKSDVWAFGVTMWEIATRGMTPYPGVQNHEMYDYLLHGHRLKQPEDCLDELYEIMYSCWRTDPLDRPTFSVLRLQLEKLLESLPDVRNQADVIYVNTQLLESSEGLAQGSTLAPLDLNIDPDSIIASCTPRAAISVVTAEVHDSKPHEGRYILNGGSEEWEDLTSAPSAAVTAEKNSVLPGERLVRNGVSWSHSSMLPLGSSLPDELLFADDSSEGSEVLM
Conditions: at 1 µM
Measured Property: residual activity (%)
Answers are plain numbers, in %.

Cc1nc2cc3nc(-c4cccs4)cnc3cc2n1C; 103
O=C1NC(=O)/C(=C\c2ccc3nccnc3c2)S1; 111

Go through the items and report each one's residual activity.
1. O=C1Nc2ccc(Br)cc2/C1=C\c1cc2c([nH]1)CCCC2
2. CCC(=O)Nc1ccc2ncnc(Nc3cccc(Br)c3)c2c1
3. Cc1cc(Nc2nc(-c3ccccc3)nc3ccccc23)n[nH]1
4. Oc1ccc(Nc2nc(-c3ccc(Cl)cc3)cs2)cc1
5. N#C/C(=C(\N)Sc1ccc(N)cc1)c1ccccc1C(F)(F)F

Output line:
1: 68; 2: 108; 3: 19; 4: 100; 5: 94

###

molecular target: Mitogen-activated protein kinase 11 (Homo sapiens) (UniProt Q15759); details: at 10 µM
Sequence (Q15759 whole entry): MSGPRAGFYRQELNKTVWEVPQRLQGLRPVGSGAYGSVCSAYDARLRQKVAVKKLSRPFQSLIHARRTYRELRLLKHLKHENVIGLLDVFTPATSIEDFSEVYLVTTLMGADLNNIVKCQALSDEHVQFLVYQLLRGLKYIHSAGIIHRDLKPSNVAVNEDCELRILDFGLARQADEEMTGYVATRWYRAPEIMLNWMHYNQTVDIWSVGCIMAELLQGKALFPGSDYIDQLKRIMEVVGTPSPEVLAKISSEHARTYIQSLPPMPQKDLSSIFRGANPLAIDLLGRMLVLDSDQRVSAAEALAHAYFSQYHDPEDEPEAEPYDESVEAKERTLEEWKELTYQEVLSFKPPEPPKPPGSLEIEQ
Measured Property: residual activity (%)
Give bare numbers, in %.

O=C1Nc2ccccc2/C1=C1/Nc2ccccc2/C1=N\OCCC(O)CO (stereo unspecified); 77
Nc1ccc2ncnc(NCCc3ccc(Oc4ccccc4)cc3)c2c1; 101
O=c1c2ccccc2[nH]c(=S)n1CCN1CCC(=C(c2ccc(F)cc2)c2ccc(F)cc2)CC1; 102

Go through the items and report each one's residual activity.
1. Oc1ccc(Nc2nc(-c3ccc(Cl)cc3)cs2)cc1
2. Cc1cccc(-c2[nH]c(C(C)(C)C)nc2-c2ccc3c(c2)OCO3)n1

Output line:
[105, 64]

###

target: Protein kinase C eta type (Homo sapiens) (UniProt P24723); details: at 10 µM
Sequence (P24723 whole entry): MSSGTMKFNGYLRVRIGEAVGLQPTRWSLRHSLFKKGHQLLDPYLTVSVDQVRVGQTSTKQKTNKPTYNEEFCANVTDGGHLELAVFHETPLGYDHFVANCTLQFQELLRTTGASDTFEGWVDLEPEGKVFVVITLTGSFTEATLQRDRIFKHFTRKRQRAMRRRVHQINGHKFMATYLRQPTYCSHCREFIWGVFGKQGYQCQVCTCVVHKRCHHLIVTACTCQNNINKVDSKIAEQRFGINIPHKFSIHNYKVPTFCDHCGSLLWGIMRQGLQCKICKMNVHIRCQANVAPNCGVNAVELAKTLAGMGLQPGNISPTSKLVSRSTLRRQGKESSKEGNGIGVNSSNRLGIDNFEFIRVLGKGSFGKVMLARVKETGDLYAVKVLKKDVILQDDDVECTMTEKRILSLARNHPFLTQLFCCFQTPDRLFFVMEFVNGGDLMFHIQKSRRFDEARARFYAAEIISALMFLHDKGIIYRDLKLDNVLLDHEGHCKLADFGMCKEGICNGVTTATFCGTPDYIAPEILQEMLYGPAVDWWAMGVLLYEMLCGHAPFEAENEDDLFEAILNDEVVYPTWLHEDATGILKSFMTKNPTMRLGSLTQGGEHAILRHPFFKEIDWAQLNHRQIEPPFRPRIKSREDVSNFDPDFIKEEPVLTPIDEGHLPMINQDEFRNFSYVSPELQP
Please mark satisfied if the recorded residual activity is equal to or greater than 80%, and not satisfied if it falls below.

Before answering, review these 6 worked examples.
O=C1NC(=O)c2c1c1c3ccccc3[nH]c1c1[nH]c3cc(Br)ccc3c21; satisfied
N#C/C(=C(\N)Sc1ccc(N)cc1)c1ccccc1C(F)(F)F; satisfied
Nc1n[nH]c2nnc(-c3c(-c4ccccc4)nn4ccccc34)cc12; not satisfied
O=C(Nc1cccc(Nc2cc(Nc3cccc(C(F)(F)F)c3)ncn2)c1)C1CC1; satisfied
Cn1cc(/C=C2\C(=O)Nc3ccc(S(N)(=O)=O)cc32)c2ccccc21; satisfied
O=Nc1c(-c2c(O)[nH]c3ccccc23)[nH]c2ccccc12; satisfied

Input line: Hi team, for `Cc1cncc2cccc(S(=O)(=O)N3CCCN(C(=O)CN)C[C@H]3C)c12` , is the recorded residual activity at or above 80%?
Output line: not satisfied

Input line: Hi team, for `CO[C@H]1C[C@@H]2CC[C@@H](C)[C@@](O)(O2)C(=O)C(=O)N2CCCC[C@H]2C(=O)O[C@H]([C@H](C)C[C@@H]2CC[C@@H](O)[C@H](OC)C2)CC(=O)[C@H](C)/C=C(\C)[C@@H](O)[C@@H](OC)C(=O)[C@H](C)C[C@H](C)/C=C/C=C/C=C/1C` , is the recorded residual activity at or above 80%?
Output line: not satisfied

###

molecular target: Ribosomal protein S6 kinase alpha-4 (Homo sapiens) (UniProt O75676); settings: at 1 µM
Sequence (O75676 whole entry, looked up): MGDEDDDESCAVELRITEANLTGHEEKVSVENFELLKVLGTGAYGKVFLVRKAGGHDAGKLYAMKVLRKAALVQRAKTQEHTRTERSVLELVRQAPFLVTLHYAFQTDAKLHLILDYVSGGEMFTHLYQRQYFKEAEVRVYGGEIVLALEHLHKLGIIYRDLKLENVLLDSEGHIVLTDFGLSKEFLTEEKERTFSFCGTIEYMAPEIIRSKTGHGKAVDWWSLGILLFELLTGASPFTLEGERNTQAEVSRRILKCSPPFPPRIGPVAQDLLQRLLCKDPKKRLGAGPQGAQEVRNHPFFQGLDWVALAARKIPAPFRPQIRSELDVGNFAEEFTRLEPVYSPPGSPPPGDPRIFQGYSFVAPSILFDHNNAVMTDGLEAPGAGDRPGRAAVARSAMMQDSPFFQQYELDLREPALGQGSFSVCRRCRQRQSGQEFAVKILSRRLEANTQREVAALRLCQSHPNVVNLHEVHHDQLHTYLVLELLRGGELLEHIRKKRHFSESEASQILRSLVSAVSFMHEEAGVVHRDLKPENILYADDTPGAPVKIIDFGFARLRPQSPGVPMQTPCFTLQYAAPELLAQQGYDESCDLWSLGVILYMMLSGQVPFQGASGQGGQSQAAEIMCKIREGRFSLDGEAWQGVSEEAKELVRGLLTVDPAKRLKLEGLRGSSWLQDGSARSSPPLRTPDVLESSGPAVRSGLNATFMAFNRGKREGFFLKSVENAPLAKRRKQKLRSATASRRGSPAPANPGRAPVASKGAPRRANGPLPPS
Measured Property: residual activity (%)
Give bare numbers, in %.

Here are 4 compounds together with their reported answers.
O=C1Nc2cc(Br)ccc2/C1=C1/Nc2ccccc2/C1=N\O; 60
N#Cc1cnc2cnc(NCc3cccnc3)cc2c1Nc1ccc(F)c(Cl)c1; 5
c1ccc(-c2n[nH]cc2-c2ccnc3ccccc23)nc1; 89
CCN(CC)C(=O)c1ccc(Nc2nc(OCC3CCCCC3)c3nc[nH]c3n2)cc1; 64

Noted for `CO[C@H]1[C@@H](OC)C[C@H](C)[C@@H](OC)C2=CC(=O)C=C(NC(=O)/C(C)=C/C=C/[C@H](OC)[C@@H](OC(N)=O)/C(C)=C/[C@@H]1C)C2=O` : its residual activity reads 92

###

Assign residual activity to each entry below.
Target: cGMP-dependent protein kinase 1 (Homo sapiens) (UniProt Q13976)
Sequence (whole entry): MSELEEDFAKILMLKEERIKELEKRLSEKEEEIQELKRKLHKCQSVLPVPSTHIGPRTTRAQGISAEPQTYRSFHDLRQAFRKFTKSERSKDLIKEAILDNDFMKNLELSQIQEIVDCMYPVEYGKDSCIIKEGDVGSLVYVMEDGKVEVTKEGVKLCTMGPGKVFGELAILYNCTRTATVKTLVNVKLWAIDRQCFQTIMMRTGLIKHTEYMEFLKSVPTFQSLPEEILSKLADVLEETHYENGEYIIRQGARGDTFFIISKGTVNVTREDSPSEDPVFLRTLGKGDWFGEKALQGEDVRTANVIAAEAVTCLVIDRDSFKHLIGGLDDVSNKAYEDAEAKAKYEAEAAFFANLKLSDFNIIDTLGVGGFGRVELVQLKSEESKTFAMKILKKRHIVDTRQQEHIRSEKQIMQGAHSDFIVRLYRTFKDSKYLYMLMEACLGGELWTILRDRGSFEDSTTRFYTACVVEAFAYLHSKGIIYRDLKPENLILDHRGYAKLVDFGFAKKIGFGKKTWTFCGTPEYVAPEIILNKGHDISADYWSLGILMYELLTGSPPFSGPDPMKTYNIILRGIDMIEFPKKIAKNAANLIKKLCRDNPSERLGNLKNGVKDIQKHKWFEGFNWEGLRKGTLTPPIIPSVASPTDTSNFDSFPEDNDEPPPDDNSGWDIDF
Settings: at 10 µM
Answers are plain numbers, in %.

Here are 3 compounds together with their reported answers.
O=c1c2ccccc2[nH]c(=S)n1CCN1CCC(=C(c2ccc(F)cc2)c2ccc(F)cc2)CC1; 87
CCOc1cc2ncnc(Nc3cccc(Br)c3)c2cc1OCC; 66
CNc1cc2c(Nc3cccc(Br)c3)ncnc2cn1; 62

Go through the items and report each one's residual activity.
1. Cc1cncc2cccc(S(=O)(=O)N3CCCN(C(=O)CN)C[C@H]3C)c12
2. CC(=O)O/N=C1\C(=C2\C(=O)Nc3cc(Br)ccc32)Nc2ccccc21
3. COc1cc2ncnc(N3CCN(C(=O)Nc4ccc(Oc5ccccc5)cc4)CC3)c2cc1OC
4. O=C1NC(=O)/C(=C\c2ccc3nccnc3c2)S1
5. CO[C@H]1[C@@H](OC)C[C@H](C)[C@@H](OC)C2=CC(=O)C=C(NC(=O)/C(C)=C/C=C/[C@H](OC)[C@@H](OC(N)=O)/C(C)=C/[C@@H]1C)C2=O
6. Cn1nc2c3c(cccc31)C(=O)c1ccccc1-2

Output line:
19
76
72
62
81
6

###

Assign residual activity to each entry below.
biological target: Serine/threonine-protein kinase pim-1 (Homo sapiens); conditions: at 10 µM
Numbers only, in %.

Here are 2 molecules together with their reported answers.
Oc1ccc(-c2nc(-c3ccc(F)cc3)c(-c3ccncc3)[nH]2)cc1; 91
N#C/C(=C(\N)Sc1ccc(N)cc1)c1ccccc1C(F)(F)F; 83

Go through the items and report each one's residual activity.
1. O=C1NC(=O)c2c1c1c3ccccc3[nH]c1c1[nH]c3cc(Br)ccc3c21
2. O=[N+]([O-])c1ccc(-c2nc(-c3ccc(F)cc3)c(-c3ccncc3)[nH]2)cc1
3. Cc1cc(Nc2nc(-c3ccccc3)nc3ccccc23)n[nH]1
4. Cc1nc2cc3nc(-c4cccs4)cnc3cc2n1C
5. O=C1Nc2ccc(Br)cc2/C1=C\c1cc2c([nH]1)CCCC2
6. Ic1cccc(CSc2nnc(-c3ccncc3)o2)c1
7. c1ccc(-c2n[nH]c3c2oc2ccccc23)cc1

Output line:
1: 13; 2: 85; 3: 57; 4: 101; 5: 105; 6: 73; 7: 84

Go through the items and report each one's residual activity.
1. COc1cc2ncc(-c3ccccc3)nc2cc1OC
2. O=C1Nc2ccccc2/C1=C1/Nc2ccccc2/C1=N\OCCC(O)CO (stereo unspecified)

Output line:
1. 82
2. 11
